Value source: the array DNA melting data of Ke et al. (doi:10.1101/2024.01.08.574731)

Overview of recorded folding enthalpy for various sequences
PROCEDURE TEXT: folding enthalpy; higher = less favourable; fluorescence melt of hairpins on a sequencing array, two-state fit
APPLIED CONDITIONS: sodium 0.088 M
Please respond with the number in kcal/mol and leave the unit unwritten.

>  <SEQ>
GGCAGCTCGAAAGAGGCC (((..(((....))))))

>  <folding enthalpy, kcal/mol>
-17.4

$$$$
>  <SEQ>
GGGCCATCGAAAGATCCC (((..(((....))))))

>  <folding enthalpy, kcal/mol>
-16.4

$$$$
>  <SEQ>
GATCACAAGGGTGATC ((((((....))))))

>  <folding enthalpy, kcal/mol>
-36.4

$$$$
>  <SEQ>
GATGTGGCGAAAGCCATC (((..(((....))))))

>  <folding enthalpy, kcal/mol>
-8.76

$$$$
>  <SEQ>
GGTGTCGAAAGACAGACC ((((((....)))..)))

>  <folding enthalpy, kcal/mol>
-15.1

$$$$
>  <SEQ>
GAGGCCGAAAGGCATCTC ((((((....)))..)))

>  <folding enthalpy, kcal/mol>
-17.1

$$$$

Entry GCTGAAGGAAACTTCAAC (.(((((....))))).) ; folding enthalpy = -18
